system: MS2 coat protein; experiment: apparent KD of MS2 coat protein; designed switch direction (-1 OFF switch, 1 ON switch): 1; higher = weaker reporter binding; conditions: Eterna round: R95; input ligand: none
So I've got a bunch of sequences here, and I need their apparent KD of MS2 coat protein values.
One number for each entry, in nM.

Please review the following examples before continuing.
[[record]]
macromolecule_sequence = "AACAAUCUAUCUGAGGAUAUCAUGAAAUAAACAUGAGGAUCACCCAUGUGCAGGAAUACUGCAUAUGAGAAGGCAGAUAGAUUGA [salish99_ss2_r3_042] (puzzle: Same State 2)"
assay_system = "MS2 coat protein"
endpoint_name = "apparent KD of MS2 coat protein"
units = "nM"
observed_measurement = 4050

[[record]]
macromolecule_sequence = "AUAAGUUCGAUGCUCGUCUCUCCGUACAAACAUGAGGAUCACCCAUGUGAUCGGGAAGUAGCCCGGUCAGUAUGGCC [Ordierti] (puzzle: Sensor for hsa-mir-208a)"
assay_system = "MS2 coat protein"
endpoint_name = "apparent KD of MS2 coat protein"
units = "nM"
observed_measurement = 38.5

[[record]]
macromolecule_sequence = "ACAAGACAUGAGGAUCACCCAUGUCCCAAUGACACAGGAUAUCGGUAGGCAUAGCCUACGCGAGAAGGGUGACUUC [Same State 1 - Mod of Vinnie Gere v.1] (puzzle: Same State 1)"
assay_system = "MS2 coat protein"
endpoint_name = "apparent KD of MS2 coat protein"
units = "nM"
observed_measurement = 73

[[record]]
macromolecule_sequence = "AAAAAACAUGAGGAUCACCCAUGUCAAAAGACAUGAGGAUAUGUACAGACUUCGGUCUGUACAGAAGGCAUGAAAA [salish99_ss1_r3_093] (puzzle: Same State 1)"
assay_system = "MS2 coat protein"
endpoint_name = "apparent KD of MS2 coat protein"
units = "nM"
observed_measurement = 528

[[record]]
macromolecule_sequence = "UCAAGCGAGAGGCUCGUCUUAUGCAAGGAACAUGAGGAUCACCCAUGUGAGGGACGAUUGAGUUAGAUGGAAUGGAG [JR_SHM208A_Sub032] (puzzle: Sensor for hsa-mir-208a)"
assay_system = "MS2 coat protein"
endpoint_name = "apparent KD of MS2 coat protein"
units = "nM"
observed_measurement = 33.5


Kindly give each listed record's apparent KD of MS2 coat protein.
1. AUUAGUUGCGGGCAGGAUAUGUAUUAAAAUACAUGAGGAUCACCCAUGUGCGGGUAUAACACCCGACAGAAGGGCCAAUCGCGAC [Mat - Same State 2 - Mod of UCT - D93] (puzzle: Same State 2)
2. UUAUAACAUGAGGAUCACCCAUGUCAACAAAGUCGAGGAUAUGGGCAAGAAGUGAGAGAACCAGAAGGCGAAUAUU [Mat - Same State 1 - Mod of UCT - D30] (puzzle: Same State 1)

Reply |
1: 409; 2: 97.4

---

So I've got a bunch of sequences here, and I need their apparent KD of K4 kissing-loop reporter values.
tested on: K4 kissing-loop RNA reporter; test: apparent KD of K4 kissing-loop reporter; higher = weaker reporter binding; conditions: Eterna round: R107; input ligand: FMN 200 uM;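 further: bound reporter read as fluorescence of individual clusters on recovered sequencing chips by microscopy, with normalized cluster intensities fitted with a binding model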
Give bare numbers, in nM.

Please review the following examples before continuing.
[[record]]
macromolecule_sequence = "UCCUGCAAUCGACCACGAAAGUGGAUUGAUACCAGAGUCGAAAGACUCCCUUGGCAGCGAGUGAUGUUCGAAGCAGGUAAAUAAA"
assay_system = "K4 kissing-loop RNA reporter"
observed_measurement = 626

[[record]]
macromolecule_sequence = "AGGAGCGUGCGAUGUAAAUCGCACGCUCCACGAGGACCGGUACGGCCGCCACUCGCUCGUGCAGAGUGAUGUUCUGCCGGCGAAU [#2 Same State - Tryptophan A Attempt #24 (HarryS)]"
assay_system = "K4 kissing-loop RNA reporter"
observed_measurement = 306


Ask | Which measured apparent KD of K4 kissing-loop reporter value corresponds to UGAUAGGACAGAAGGAGCGGUAGUGAUGUUACCAAAAGAAUAAGGUGUCAAAAGACACCCUACCAGGUAGGUCGCUGUCCUAUCU ?
Reply | 170
